Quick reference for IC50 among some compounds
# measured-on: Carboxy-terminal domain RNA polymerase II polypeptide A small phosphatase 1 (Homo sapiens, UniProt Q9GZU7)
# Sequence (Q9GZU7 whole entry, the tested form may be a part): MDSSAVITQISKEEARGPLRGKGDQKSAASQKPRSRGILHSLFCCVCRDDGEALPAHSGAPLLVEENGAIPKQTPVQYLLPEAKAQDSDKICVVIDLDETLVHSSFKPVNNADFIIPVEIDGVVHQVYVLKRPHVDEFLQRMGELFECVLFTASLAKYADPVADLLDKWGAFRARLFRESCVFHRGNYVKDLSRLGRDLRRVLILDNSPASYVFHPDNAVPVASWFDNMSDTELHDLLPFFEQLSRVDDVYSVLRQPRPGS
# method-notes: CTDSP1 inhibitors, concentration-response, biochemical, absorbance readout, ultra-high-throughput screen actives (AID 540297)
# Format: functional
Activity calls are given as the source filed them.

>  <structure-smiles-string>
CCCSc1nnc(NC(=O)CSc2sc3c(O)cc(O)nc3c2C#N)s1

>  <IC50>
3.46 µM (active)

$$$$
>  <structure-smiles-string>
O=C1Nc2ccc(S(=O)(=O)NCc3ccccn3)c3cccc1c23

>  <IC50>
8.42 µM (active)

$$$$

[in] Given the entry O=C(N/N=C/c1ccco1)c1cccc(N2Cc3ccccc3C2)c1 , report its measured IC50.
[out] 4.27 µM (active)

[in] Given the entry CSc1ccc(/C=C(\C(=O)O)c2ccc(S(=O)(=O)N3CCCC3)s2)cc1 , report its measured IC50.
[out] 5.2 µM (active)

[in] Given the entry O=C(COC(=O)c1cncc(Br)c1)Nc1nnc(-c2ccccc2)o1 , report its measured IC50.
[out] 6.29 µM (active)

[in] Given the entry NC(=NOC(=O)c1cccc([N+](=O)[O-])c1)c1cccc([N+](=O)[O-])c1 , report its measured IC50.
[out] 11.2 µM (active)

[in] Given the entry C[N@+]12CC[C@H](CC1)C(=C(c1ccccc1)c1ccccc1)C2 , report its measured IC50.
[out] 3.04 µM (active)

* * *

# measured-on: Prothrombin (Homo sapiens)
# method-notes: Thrombin 1536 HTS Dose Response Confirmation. [Related pubchem assays: 1046 (Thrombin 1536 HTS; hits were confirmed in this assay)]
# Format: functional
Activity calls are given as the source filed them.
Quick reference for IC50 among some molecules

Worked set:
>  <molecule>
O=C(COC(=O)c1ccc([N+](=O)[O-])s1)Nc1cccc(S(=O)(=O)/N=C2/CCCCCN2)c1

>  <IC50>
> 50 µM (not active)

$$$$
>  <molecule>
COc1cc(S(=O)(=O)N2CCOCC2)ccc1NC(=O)COC(=O)c1ccccn1

>  <IC50>
0.545 µM (active)

$$$$
>  <molecule>
COC(c1ccccc1)c1nnc(CCC(=O)N(C)Cc2cccc(-n3cccn3)c2)o1 (configuration not stated)

>  <IC50>
> 50 µM (not active)

$$$$
>  <molecule>
CCOC(=O)CSC1=N/C(=C/c2ccc(-n3cncn3)cc2)C(=O)N1C(C)=O

>  <IC50>
0.942 µM (active)

$$$$
>  <molecule>
CC(=O)OCC1(C)CN(c2ccccc2)N(C(=O)c2ccc(C(C)(C)C)cc2)C1=O (configuration not stated)

>  <IC50>
18 µM (active)

$$$$

[in] Given the entry O=C(O)CSCC(=O)NCc1cccc(C(F)(F)F)c1 , report its measured IC50.
[out] > 50 µM (not active)

[in] Given the entry Oc1cccc(-c2nc3ccccc3s2)c1 , report its measured IC50.
[out] > 50 µM (not active)

* * *

Quick reference for AC50 among some molecules
# measured-on: UniProt:P08684
# Sequence (P08684 whole entry): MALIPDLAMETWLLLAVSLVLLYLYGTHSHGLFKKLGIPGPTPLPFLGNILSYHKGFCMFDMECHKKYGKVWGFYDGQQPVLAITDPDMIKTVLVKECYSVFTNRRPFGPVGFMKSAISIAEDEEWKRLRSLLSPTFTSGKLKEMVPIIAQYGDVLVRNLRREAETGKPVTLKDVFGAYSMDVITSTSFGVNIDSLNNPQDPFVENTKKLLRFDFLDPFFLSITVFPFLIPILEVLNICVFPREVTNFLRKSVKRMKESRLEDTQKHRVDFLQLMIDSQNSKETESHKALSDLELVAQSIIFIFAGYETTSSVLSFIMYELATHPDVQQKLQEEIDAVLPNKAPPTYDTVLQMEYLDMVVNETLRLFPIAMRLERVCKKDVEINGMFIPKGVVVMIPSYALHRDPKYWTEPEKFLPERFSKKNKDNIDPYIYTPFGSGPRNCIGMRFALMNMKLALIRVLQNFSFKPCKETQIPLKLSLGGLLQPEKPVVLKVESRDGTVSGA

Worked set:
>  <molecule>
Cc1cc(C)c(S(=O)(=O)NNC(=O)C2CCN(Cc3ccccc3)CC2)c(C)c1

>  <measured-on>
UniProt:P08684

>  <measured-attribute>
AC50

>  <assay-result>
22.4 µM (inconclusive)

$$$$
>  <molecule>
CNc1ccnc(-c2ccccc2C)n1

>  <measured-on>
UniProt:P08684

>  <measured-attribute>
AC50

>  <assay-result>
15.8 µM (inconclusive)

$$$$
>  <molecule>
Cc1ccc(CS(=O)(=O)Cc2ccc(C(=O)NCC3CCCO3)o2)cc1 (centres undefined)

>  <measured-on>
UniProt:P08684

>  <measured-attribute>
AC50

>  <assay-result>
15.8 µM (inconclusive)

$$$$
>  <molecule>
Fc1cccc(/C=N\N=C/c2cccc(F)c2)c1

>  <measured-on>
UniProt:P08684

>  <measured-attribute>
AC50

>  <assay-result>
31.6 µM (inconclusive)

$$$$
>  <molecule>
Cc1ccc(OCCCC(=O)N2CCOCC2)cc1

>  <measured-on>
UniProt:P08684

>  <measured-attribute>
AC50

>  <assay-result>
25.1 µM (inconclusive)

$$$$

[in] Lab note: need AC50 for CN(Cc1ccco1)c1nc(-c2ccccc2C(F)(F)F)nc2ccccc12 on UniProt:P08684, anyone have it?
[out] 12.6 µM (inconclusive)

[in] Lab note: need AC50 for CCOC(=O)c1c(-c2ccc(OC)cc2)csc1NC(=O)CCN1C(=O)c2ccccc2C1=O on UniProt:P08684, anyone have it?
[out] 4.47 µM (inconclusive)

[in] Lab note: need AC50 for COc1ccc(C2C(C(=O)c3ccc4c(c3)CC(C)O4)=C(O)C(=O)N2CCN2CCOCC2)cc1 (centres undefined) on UniProt:P08684, anyone have it?
[out] 28.2 µM (inconclusive)

[in] Lab note: need AC50 for CC[C@@H]1OC(=O)[C@H](C)[C@H](O[C@@H]2C[C@](C)(OC)[C@H](O)[C@H](C)O2)[C@H](C)[C@H](O[C@@H]2O[C@@H](C)C[C@@H](N(C)C)[C@@H]2O)[C@](C)(O)C[C@H](C)C(=NOCOCCOC)[C@H](C)[C@H](O)[C@]1(C)O on UniProt:P08684, anyone have it?
[out] 12.6 µM (inconclusive)

* * *

# measured-on: Genome polyprotein (dengue virus type 2)
# Sequence (P29990 2492-3391 limits assumed): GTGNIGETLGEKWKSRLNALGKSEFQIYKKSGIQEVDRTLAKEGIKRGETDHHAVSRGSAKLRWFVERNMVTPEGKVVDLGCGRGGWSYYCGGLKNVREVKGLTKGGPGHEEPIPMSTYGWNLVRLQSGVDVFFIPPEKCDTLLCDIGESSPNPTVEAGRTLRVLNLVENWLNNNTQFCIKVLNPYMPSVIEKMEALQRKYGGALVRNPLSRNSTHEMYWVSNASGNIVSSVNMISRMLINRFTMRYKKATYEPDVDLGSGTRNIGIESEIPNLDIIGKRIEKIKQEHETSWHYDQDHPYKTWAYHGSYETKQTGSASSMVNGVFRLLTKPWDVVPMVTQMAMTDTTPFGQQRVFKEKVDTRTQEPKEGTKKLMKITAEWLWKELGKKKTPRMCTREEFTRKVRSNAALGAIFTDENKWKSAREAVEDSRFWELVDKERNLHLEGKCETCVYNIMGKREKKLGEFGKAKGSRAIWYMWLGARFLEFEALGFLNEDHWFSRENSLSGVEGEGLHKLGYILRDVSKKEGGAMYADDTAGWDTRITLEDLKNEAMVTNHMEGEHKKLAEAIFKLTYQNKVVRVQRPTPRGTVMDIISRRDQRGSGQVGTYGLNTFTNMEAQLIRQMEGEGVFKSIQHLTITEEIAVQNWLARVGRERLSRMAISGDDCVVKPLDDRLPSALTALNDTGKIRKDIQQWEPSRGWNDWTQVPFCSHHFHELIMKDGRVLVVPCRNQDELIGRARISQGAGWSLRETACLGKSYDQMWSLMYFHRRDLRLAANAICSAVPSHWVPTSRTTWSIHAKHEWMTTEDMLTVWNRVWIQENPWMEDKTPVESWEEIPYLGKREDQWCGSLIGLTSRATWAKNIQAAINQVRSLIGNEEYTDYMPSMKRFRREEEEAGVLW
# method-notes: flavivirus cap methylation enzyme inhibition – biochemical, confirmation dose response, primary screen (AID 588689)
# Format: functional
Activity calls are given as the source filed them.
Quick reference for IC50 among some compounds

>  <structure-smiles-string>
Nc1cc2nsnc2cc1Br

>  <measured-attribute>
IC50

>  <assay-result>
48.7 µM (active)

$$$$

[in] Lab note: need IC50 for COc1ccc(C)cc1NC(=O)c1ccccc1NS(=O)(=O)c1ccc(Cl)s1 on Genome polyprotein (dengue virus type 2), anyone have it?
[out] 49.3 µM (active)

[in] Lab note: need IC50 for Cc1ccccc1S(=O)(=O)N1[C@@H](c2ccc(Br)cc2)C(C(=O)O)=CC[C@H]1c1ccc(Cl)cc1 on Genome polyprotein (dengue virus type 2), anyone have it?
[out] 41.4 µM (active)

[in] Lab note: need IC50 for CC1=NN(c2ccc(Cl)c(C(=O)O)c2)C(=O)/C1=C\c1ccc(-c2ccc(C(=O)O)cc2)o1 on Genome polyprotein (dengue virus type 2), anyone have it?
[out] 19.4 µM (active)

[in] Lab note: need IC50 for CN(C)c1ccc(C=C2C(=O)NC(=O)NC2=O)cc1[N+](=O)[O-] on Genome polyprotein (dengue virus type 2), anyone have it?
[out] 16.3 µM (active)

* * *

# measured-on: Kappa-type opioid receptor (Homo sapiens, UniProt P41145)
# Sequence (P41145 whole entry): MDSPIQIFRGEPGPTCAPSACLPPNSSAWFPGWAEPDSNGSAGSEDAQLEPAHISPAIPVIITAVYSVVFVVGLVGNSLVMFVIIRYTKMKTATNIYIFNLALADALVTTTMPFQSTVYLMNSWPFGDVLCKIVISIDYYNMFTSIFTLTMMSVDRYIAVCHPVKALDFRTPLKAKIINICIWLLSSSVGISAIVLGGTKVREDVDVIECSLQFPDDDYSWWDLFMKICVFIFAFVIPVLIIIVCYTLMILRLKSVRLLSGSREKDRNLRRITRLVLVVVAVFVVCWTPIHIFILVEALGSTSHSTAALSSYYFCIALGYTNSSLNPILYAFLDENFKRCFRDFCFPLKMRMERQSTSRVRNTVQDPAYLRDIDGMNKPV
# Format: functional
pEC50: −log10 of the molar value.
measured-attribute: pEC50

[in] Given the entry Cc1ccccc1NC(=O)c1ccc(COc2ccc3c(C)cc(=O)oc3c2)cc1 , report its measured pEC50.
[out] < 4.46

* * *

# measured-on: Kappa-type opioid receptor (Homo sapiens)
# Type: functional
measured-attribute: IC50 (µM)
Number only, in µM; omit the unit.

[in] Given the entry CC(NC(=O)Cn1ncc(Cl)c(Cl)c1=O)C12CC3CC(CC(C3)C1)C2 (stereo unspecified) , report its measured IC50.
[out] 2.63

* * *

# measured-on: DNA dC->dU-editing enzyme APOBEC-3G (Homo sapiens)
# Sequence (Q9HC16 whole entry): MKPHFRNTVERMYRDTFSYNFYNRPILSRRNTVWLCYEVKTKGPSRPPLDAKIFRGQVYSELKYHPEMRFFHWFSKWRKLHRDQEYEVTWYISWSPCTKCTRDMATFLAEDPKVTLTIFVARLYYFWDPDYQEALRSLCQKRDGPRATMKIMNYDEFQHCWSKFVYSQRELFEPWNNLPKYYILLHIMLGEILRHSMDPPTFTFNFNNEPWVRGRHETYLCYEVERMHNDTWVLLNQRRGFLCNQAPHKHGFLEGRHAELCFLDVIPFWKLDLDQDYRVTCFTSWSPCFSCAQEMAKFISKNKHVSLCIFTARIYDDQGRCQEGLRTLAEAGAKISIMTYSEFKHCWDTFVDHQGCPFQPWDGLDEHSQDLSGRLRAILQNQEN
# Type: functional
Active and inactive are the calls of the source.
Quick reference for IC50 among some compounds

Worked set:
>  <compound>
O=C(CSC1=NCCS1)NC1CCCCC1

>  <measured-on>
DNA dC->dU-editing enzyme APOBEC-3G (Homo sapiens)

>  <IC50>
3.76 µM (active)

$$$$
>  <compound>
Cn1cc(/C=N/NC(=O)c2cc3cc(Br)ccc3o2)c2ccccc21

>  <measured-on>
DNA dC->dU-editing enzyme APOBEC-3G (Homo sapiens)

>  <IC50>
39.3 µM (active)

$$$$
>  <compound>
C[n+]1cccc(C(=O)NCC2CCCO2)c1 (stereo not drawn)

>  <measured-on>
DNA dC->dU-editing enzyme APOBEC-3G (Homo sapiens);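 note: Dose-response counterscreen measuring inhibition of APOBEC3G DNA deaminase activity, run while confirming APOBEC3A inhibitors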

>  <IC50>
4.44 µM (active)

$$$$

[in] Lab note: need IC50 for Cc1c(NC(=O)c2cc(-n3cnnc3)ccc2Cl)cccc1-c1nc2ccccc2o1 on DNA dC->dU-editing enzyme APOBEC-3G (Homo sapiens), anyone have it?
[out] 2.65 µM (active)

[in] Lab note: need IC50 for COc1ccc(NC(=O)C(=O)N2N=C3CCCCC3C2(O)C(F)(F)F)cc1 (stereo not drawn) on DNA dC->dU-editing enzyme APOBEC-3G (Homo sapiens), anyone have it?
[out] 6.97 µM (active)

[in] Lab note: need IC50 for COCc1cc(C)nc(N2CCN(Cc3ccccc3)CC2)c1C#N on DNA dC->dU-editing enzyme APOBEC-3G (Homo sapiens), anyone have it?
[out] 3.55 µM (active)

[in] Lab note: need IC50 for Cn1c(Cc2ccccc2)nnc1SCCC(=O)Nc1ccccc1 on DNA dC->dU-editing enzyme APOBEC-3G (Homo sapiens), anyone have it?
[out] 4.55 µM (active)

[in] Lab note: need IC50 for CC(C)(C)c1ccc(NC(=O)C2=CN3CCS(=O)(=O)N=C3C=C2)cc1 on DNA dC->dU-editing enzyme APOBEC-3G (Homo sapiens), anyone have it?
[out] 8.51 µM (active)
